Measured values drawn from PubChem BioAssay AID602281 for this set.

- target desc: Perilipin-5 (Homo sapiens) + 1-acylglycerol-3-phosphate O-acyltransferase ABHD5 (Homo sapiens) (UniProt Q00G26+Q8WTS1)
- Sequence (Q00G26 whole entry, looked up): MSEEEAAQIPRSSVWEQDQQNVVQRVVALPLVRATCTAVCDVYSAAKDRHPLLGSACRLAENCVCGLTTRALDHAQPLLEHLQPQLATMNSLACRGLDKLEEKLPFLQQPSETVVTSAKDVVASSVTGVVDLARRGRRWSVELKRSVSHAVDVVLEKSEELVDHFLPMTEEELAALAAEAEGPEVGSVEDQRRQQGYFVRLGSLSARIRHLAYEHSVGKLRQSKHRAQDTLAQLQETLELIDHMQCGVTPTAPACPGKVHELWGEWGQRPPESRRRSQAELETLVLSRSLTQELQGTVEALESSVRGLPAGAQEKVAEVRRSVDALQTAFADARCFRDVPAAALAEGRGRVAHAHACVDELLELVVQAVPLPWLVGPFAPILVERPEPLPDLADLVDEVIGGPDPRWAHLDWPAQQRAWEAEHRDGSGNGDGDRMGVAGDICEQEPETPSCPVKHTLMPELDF
- Sequence (Q8WTS1 whole entry, looked up): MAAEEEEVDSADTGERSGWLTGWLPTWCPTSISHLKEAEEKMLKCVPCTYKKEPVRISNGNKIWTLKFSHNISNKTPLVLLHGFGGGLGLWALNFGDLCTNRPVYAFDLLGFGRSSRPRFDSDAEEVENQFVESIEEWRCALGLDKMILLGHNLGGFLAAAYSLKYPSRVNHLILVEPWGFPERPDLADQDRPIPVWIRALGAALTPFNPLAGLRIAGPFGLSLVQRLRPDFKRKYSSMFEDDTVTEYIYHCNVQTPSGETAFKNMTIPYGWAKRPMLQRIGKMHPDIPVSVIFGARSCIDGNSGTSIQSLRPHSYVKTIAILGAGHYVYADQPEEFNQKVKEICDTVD
- experiment notes: ABHD5-PLIN5 interaction inhibitors, primary screen, cell lysate, split luciferase complementation, luminescence (AID 602281);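 note: 0% = DMSO only wells and the 100% control is not disclosed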
- measurement context: Split G. princeps luciferase complementation, 4 h, at 4 µM, hits give high values
Hit rate of the full screen: of about 360,000 compounds, about 2,900 (0.81%) were called active. For the sample, actives were picked, then their nearest neighbours and some compounds at random.
# inhibition annotations
property label: inhibition

CC(=O)Nc1ccc(C=CC(=O)c2ccc([N+](=O)[O-])cc2)cc1 | 27.1% (active)
CC(C)[C@H](NC(=O)c1ccc(F)cc1)C(=O)OCC(=O)NC(=O)c1cccn1C | -4.59% (inactive)
CC(=O)OCCOCn1cnn2c(=O)c(Br)c(C)nc12 | -1.92% (inactive)
CCn1c(CNC(=O)c2ccc(OC)c(OC)c2)nnc1SCC(=O)Nc1ccccc1 | -3.29% (inactive)

====

Collected inhibition values appear next to each entry.
- target desc: Perilipin-5 (Homo sapiens) + 1-acylglycerol-3-phosphate O-acyltransferase ABHD5 (Homo sapiens) (UniProt Q00G26+Q8WTS1)
- experiment notes: ABHD5-PLIN5 interaction inhibitors, primary screen, cell lysate, split luciferase complementation, luminescence (AID 602281);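 note: 0% = DMSO only wells and the 100% control is not disclosed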
- measurement context: Split G. princeps luciferase complementation, 4 h, at 4 µM, hits give high values
In all, about 360,000 compounds went through this assay and about 2,900 (0.81%) were called active. For the sample, actives were picked, then their nearest neighbours and some compounds at random.
property label: inhibition (%)

Cc1ccc(-n2c(SCC(=O)Nc3ncc(Cl)cc3Cl)nc3ccccc32)cc1 | -7.45
CC1Cc2ccccc2N1CC(=O)Nc1ccc(S(N)(=O)=O)cc1 (centres undefined) | 26.1
Cc1ccc(NNC(=O)c2cccs2)cc1Cl | 0.05
CC(C)OCCCNC(=O)CNC(=O)c1cccs1 | 3.5
